# tgt: T1, His-tagged SARS-CoV-2 RBD T478K (SARS-CoV-2, Wuhan-Hu-1 RBD with T478K, T478K)
# T1 construct: not shown: His6, N-terminal, kept
# assay-comment: BLI
# setup-conditions: both partners purified
For each of the binders below, state its Kd.
Give the number; nM is assumed, so skip it.

(Q) What does the data say about its Kd? Entry: mAb 88 (antibody, V domains shown, copies: 2 + 2) VH: QLQLQESGPGLVKPSQTLSLTCTVSGGSISSGSYNWTWIRQPAGKGLEWIGRIYNSGSTNYNPSLKSRVTISVDTSKNQLSLKVRSVTAADTAVYYCARHCSGGTCYPKYYYGMDVWGQGTTVTVSS VL: QSALTQPPSVSEAPRQRVTISCSGSSSNIGNNAVNWYQQFPGKAPKLLIYYDDLLPSGVSDRFSGSKSGTSASLAISGVQSEDEADYYCAAWDDSLNVVVFGGGTKLTVL
(A) 2.4

(Q) mAb 222 (antibody, V domains shown, copies: 2 + 2) VH: EVQLVESGGGLIQPGGSLRLSCAASGLTVSSNYMSWVRQAPGKGLEWVSVIYSGGSTFYADSVKGRFTISRDNSKNTLYLQMNSLGAEDTAVYYCARGEGSPGNWFDPWGQGTLVTVSS VL: DVVMTQSPGTLSLSPGERATLSCRASQSVPSSYLAWYQQKPGQAPRLLIYGASTRATGIPDRFSGSGSGTDFTLTISRLEPEDFAVYYCQHYDTSPRFGGGTKVDIK ?
(A) 0.2

(Q) REGN10987 (antibody, V domains shown, source: provided by AstraZeneca; copies: 2 + 2) VH: QVQLVESGGGVVQPGRSLRLSCAASGFTFSNYAMYWVRQAPGKGLEWVAVISYDGSNKYYADSVKGRFTISRDNSKNTLYLQMNSLRTEDTAVYYCASGSDYGDYLLVYWGQGTLVTVSS VL: QSALTQPASVSGSPGQSITISCTGTSSDVGGYNYVSWYQQHPGKAPKLMIYDVSKRPSGVSNRFSGSKSGNTASLTISGLQSEDEADYYCNSLTSISTWVFGGGTKLTVL ?
(A) 0.35

(Q) mAb 278 (antibody, V domains shown, copies: 2 + 2) VH: QVQLVQSGAEVKKPGASVKVSCKASGYIFIRYGISWVRQAPGQGLEWMGWISANNGYTNYAQKLQGRVTMTTDTSTSTAYMELRSLRSDDTAVYYCARDGGILTGYLDYFDHWGQGTLVTVSS VL: DIQMTQSPSSLSASVGDRLTITCRASQSIASYLNWYQQKPGKAPKLLIYAASSLQSGVPSRFSGSGSGTDFTLTISSLQPEDFATYHCQQSYSTLGITFGPGTKVDIK ?
(A) 1.5
